biological target: UniProt:P00918
Would you kindly list pKi for each of these molecules?
Lab note — pKi values are minus log10 of concentrations in M.

Request the reported pKi associated with `O=C(Nc1cccc2c1C(=O)NS2(=O)=O)c1ccc(-c2ccccc2)cc1`
6.04

Now consider `O=C(Nc1cccc2c1C(=O)NS2(=O)=O)c1cccc(Br)c1` and answer again.
6.23

Now consider `Cc1ccc(C(=O)Nc2ccc3c(c2)S(=O)(=O)NC3=O)cc1` and answer again.
6.39

Now consider `O=C(Nc1cccc2c1C(=O)NS2(=O)=O)c1ccccc1` and answer again.
6.74

Now consider `O=C(Nc1ccc2c(c1)C(=O)NS2(=O)=O)c1ccc(Cl)cc1` and answer again.
5.64

Now consider `O=C(Nc1ccc2c(c1)S(=O)(=O)NC2=O)c1cccc(Cl)c1` and answer again.
5.22

Now consider `COc1ccc(C(=O)Nc2ccc3c(c2)S(=O)(=O)NC3=O)cc1` and answer again.
5.16

The measurements presented in this section are drawn from ChEMBL document CHEMBL4425112.
